Sourced from paper PMC7809625

# target system: VGLUT1 (Rattus norvegicus, UniProt Q62634)
# Sequence (Q62634 1-560): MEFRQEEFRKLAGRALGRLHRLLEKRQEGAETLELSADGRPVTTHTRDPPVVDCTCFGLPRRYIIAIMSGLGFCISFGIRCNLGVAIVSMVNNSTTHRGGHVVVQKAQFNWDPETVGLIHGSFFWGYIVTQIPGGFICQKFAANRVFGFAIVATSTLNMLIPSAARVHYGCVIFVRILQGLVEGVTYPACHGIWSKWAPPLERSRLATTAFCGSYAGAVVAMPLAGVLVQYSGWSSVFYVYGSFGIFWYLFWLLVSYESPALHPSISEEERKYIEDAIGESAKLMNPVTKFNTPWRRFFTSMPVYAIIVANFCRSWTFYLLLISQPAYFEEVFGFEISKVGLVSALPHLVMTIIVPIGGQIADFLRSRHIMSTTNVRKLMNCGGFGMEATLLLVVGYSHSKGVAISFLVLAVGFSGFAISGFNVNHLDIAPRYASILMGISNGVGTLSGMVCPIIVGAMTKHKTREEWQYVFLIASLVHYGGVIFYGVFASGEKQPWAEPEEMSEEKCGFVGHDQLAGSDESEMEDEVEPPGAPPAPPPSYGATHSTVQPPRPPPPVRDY
# experiment summary: inhibition of Na+-dependent Pi uptake in COS7-VGLUT1 cells
recorded metric: Ki (mM)
Value expressed in mM; do not type the unit.

input: Look up Ki of N[C@@H](CCC(=O)O)C(=O)O [glutamate] and report it.
output: 1.37
